Values compiled from patent US12060347B2.

Form field: pIC50 (one value per entry).
- tested target: human PAR4 (Homo sapiens)
- experiment description: PAR4 FLIPR assay: antagonism of agonist-peptide-induced calcium mobilization in PAR4-expressing HEK293 cells
- experimental conditions: H-Ala-Phe(4-F)-[…]NH2-induced intracellular calcium mobilization, 11-point curves
FYI, pIC50 means -log10 of a concentration in mol per litre.

# entry smiles, measured result
measured = [
    ("COc1cnc2c(-c3nc4cc(F)c(OC[C@@H](C)OC(=O)Nc5ccc(C(=O)N6CC[C@H](O)C6)nc5)cc4s3)cc(C)cc2n1", 8.04),
    ("COc1cnc2c(-c3nc4cc(F)c(O[C@@H](C)[C@@H](C)OC(=O)Nc5ccc(CN6CCOCC6)nc5)cc4s3)cc(C)cc2n1", 7.62),
    ("COc1cnc2c(-c3nc4cc(F)c(OC[C@@H](C)OC(=O)Nc5cncnc5)cc4s3)cc(C)cc2n1", 9.40),
    ("COc1cnc2c(-c3nc4c(Cl)c(F)c(OCCOC(=O)NCC(F)(F)F)cc4s3)cc(C)cc2n1", 7.54),
    ("COc1cnc2c(-c3nc4cc(F)c(O[C@@H](C)[C@@H](C)OC(=O)Nc5cccnc5)nc4s3)cc(C)cc2n1", 9.40),
]

Task: What value of pIC50 on human PAR4 (Homo sapiens) does COc1cnc2c(-c3nc4c(Cl)c(F)c(OC[C@@H](C)OC(=O)Nc5ccnc(C(N)=O)c5)cc4s3)cc(C)cc2n1 have?
Output: 8.12

Task: What value of pIC50 on human PAR4 (Homo sapiens) does Cc1cc(-c2nc3cccc(NC(=O)OC4CCOCC4)c3s2)c2ncc(OC(F)F)nc2c1 have?
Output: 8.48

---

- tested target: human PAR4 (Homo sapiens)
- experiment description: PAR4 FLIPR assay: antagonism of agonist-peptide-induced calcium mobilization in PAR4-expressing HEK293 cells
- experimental conditions: H-Ala-Phe(4-F)-[…]NH2-induced intracellular calcium mobilization, 11-point curves
Form field: pIC50 (one value per entry).
FYI, pIC50 means -log10 of a concentration in mol per litre.

As a guide, the following entries are already answered.
# entry smiles, pIC50
data = [
    ("COc1cnc2c(-c3nc4cc(F)c(O[C@@H](C)[C@@H](C)OC(=O)Nc5cnc(OC[C@H](C)O)nc5)nc4s3)cc(C)cc2n1", 8.62),
    ("COc1cc(CO)c2nc(-c3cc(C)cc4nc(OC)cnc34)sc2c1", 8.42),
    ("COc1cnc2c(-c3nc4cc(F)c(OC[C@@H](C)OC(=O)Nc5cnc(C(=O)N(C)C)nc5)cc4s3)cc(C)cc2n1", 8.96),
]

We now examine a further compound.
Task: What measured pIC50 goes with COc1cnc2c(-c3nc4c(Cl)c(F)c(OC[C@@H](C)OC(=O)Nc5cncnc5)cc4s3)cc(C)cc2n1 ?
Output: 8.15

---

Form field: IC50 (one value per entry).
- tested target: human PAR4 (Homo sapiens)
- experiment description: PAR4 FLIPR assay: antagonism of agonist-peptide-induced calcium mobilization in PAR4-expressing HEK293 cells
- experimental conditions: H-Ala-Phe(4-F)-[…]NH2-induced intracellular calcium mobilization, 11-point curves
Just the number please, in nM, no unit attached.

As a guide, the following entries are already answered.
# entry smiles, tested target, unit of measure, measured result
measured = [
    ("COc1cnc2c(-c3nc4c(C)c(F)c(OC)cc4s3)cc(C)cc2n1", "human PAR4 (Homo sapiens)", "nM", 5.2),
    ("COc1cnc2c(-c3nc4c(Cl)c(F)c(OCCO)cc4s3)cc(C)cc2n1", "human PAR4 (Homo sapiens)", "nM", 7.8),
    ("COc1cnc2c(-c3nc4cc(F)c(O[C@@H](C)[C@@H](C)OC(=O)Nc5ccncc5)cc4s3)cc(Cl)cc2c1", "human PAR4 (Homo sapiens)", "nM", 4.4),
]

We now examine a further molecule.
Task: What measured IC50 goes with COc1cnc2c(-c3nc4cc(F)c(OC[C@@H](C)OC(=O)Nc5cccnc5)cc4s3)cc(C)cc2n1 ?
Output: 0.8

---

- tested target: human PAR4 (Homo sapiens)
- experiment description: PAR4 FLIPR assay: antagonism of agonist-peptide-induced calcium mobilization in PAR4-expressing HEK293 cells
- experimental conditions: H-Ala-Phe(4-F)-[…]NH2-induced intracellular calcium mobilization, 11-point curves
observable: IC50 (nM)
Just the number please, in nM, no unit attached.

As a guide, the following entries are already answered.
# compound, unit of measure, measured result
records = [
    ("CNC(=O)c1cnc2c(-c3nc4cc(F)c(O[C@@H](C)[C@@H](C)OC(=O)Nc5cnc(C)nc5)cc4s3)cc(C)cc2n1 (stereo in doubt) [Example 393]", "nM", 30),
    ("COc1cnc2c(-c3nc4c(Cl)c(F)c(OC[C@@H](C)OC(=O)Nc5ccc(CO)nc5)cc4s3)cc(C)cc2n1 [Example 385]", "nM", 2.3),
    ("COc1cnc2c(-c3nc4c(Cl)c(F)c(OC[C@@H](C)OC(=O)Nc5cnccc5C)cc4s3)cc(C)cc2n1 [Example 376]", "nM", 72),
]

Task: What measured IC50 goes with COCc1cnc2c(-c3nc4ccccc4s3)cc(C)cc2n1 [Example 256] ?
Output: 1.2

Task: What measured IC50 goes with [2H]C([2H])([2H])OC([2H])([2H])c1cnc2c(-c3nc4c(C(O)C(C)(C)C)cc(OC)cc4s3)cc(C)cc2n1 (single isomer, unassigned) [Example 170] ?
Output: 0.3

Task: What measured IC50 goes with COc1cnc2c(-c3nc4c(Cl)c(F)c(OC)cc4s3)cc(CO)c(F)c2n1 [Example 224] ?
Output: 15

Task: What measured IC50 goes with COc1cnc2c(-c3nc4c(C)cc(OCCOC(=O)Nc5ccc(C#N)nc5)nc4s3)cc(C)cc2n1 [Example 197] ?
Output: 1.3

---

- tested target: human PAR4 (Homo sapiens)
- experiment description: PAR4 FLIPR assay: antagonism of agonist-peptide-induced calcium mobilization in PAR4-expressing HEK293 cells
- experimental conditions: H-Ala-Phe(4-F)-[…]NH2-induced intracellular calcium mobilization, 11-point curves
Form field: pIC50 (one value per entry).
FYI, pIC50 means -log10 of a concentration in mol per litre.

As a guide, the following entries are already answered.
# molecule, pIC50
data = [
    ("COc1cncc(NC(=O)O[C@H](C)[C@H](C)Oc2cc3sc(-c4cc(C)cc5nc(OC)cnc45)nc3cc2F)c1 [Example 420]", 8.66),
    ("COc1cnc2c(-c3nc4c(Cl)c(F)c(OCC(=O)N5CCOCC5)cc4s3)cc(C)cc2n1 [Example 324]", 7.38),
]

Task: What value of pIC50 on human PAR4 (Homo sapiens) does COc1cc(C(C)O)c2nc(-c3cc(C)cc4nc(OC)cnc34)sc2c1 (centres unmarked) [Example 677] have?
Output: 8.42

Task: What value of pIC50 on human PAR4 (Homo sapiens) does COc1cnc2c(-c3nc4cc(F)c(OC[C@@H](C)OC(=O)NCCC(N)=O)cc4s3)cc(C)cc2n1 [Example 352] have?
Output: 6.41

Task: What value of pIC50 on human PAR4 (Homo sapiens) does COc1cnc2c(-c3nc4cc(F)c(O[C@@H](C)[C@@H](C)OC(=O)Nc5ccc(N6CCOCC6)nc5)cc4s3)cc(C)cc2n1 [Example 603] have?
Output: 8.68

Task: What value of pIC50 on human PAR4 (Homo sapiens) does COc1cnc2c(-c3nc4cc(F)c(O[C@@H](C)[C@@H](C)OC(=O)Nc5ccc(C(C)O)nc5)nc4s3)cc(C)cc2n1 (single isomer, unassigned) [Example 766] have?
Output: 8.54

Task: What value of pIC50 on human PAR4 (Homo sapiens) does COc1cnc2c(-c3nc4cc(F)c(O[C@@H](C)[C@@H](C)OC(=O)Nc5cnc(C(=O)N6CCOCC6)nc5)cc4s3)cc(C)cc2n1 [Example 437] have?
Output: 8.31

Task: What value of pIC50 on human PAR4 (Homo sapiens) does COc1cnc2c(-c3nc4c(C(O)C(C)(C)C)cc(OC)nc4s3)cc(C)cc2n1 (centres unmarked) [Example 807] have?
Output: 8.59

Task: What value of pIC50 on human PAR4 (Homo sapiens) does COCc1cnc2c(-c3nc4c(C)cc(OC)cc4s3)cc(F)cc2n1 [Example 206] have?
Output: 9.15

---

- tested target: human PAR4 (Homo sapiens, UniProt Q96RI0)
- Sequence (Q96RI0 18-385): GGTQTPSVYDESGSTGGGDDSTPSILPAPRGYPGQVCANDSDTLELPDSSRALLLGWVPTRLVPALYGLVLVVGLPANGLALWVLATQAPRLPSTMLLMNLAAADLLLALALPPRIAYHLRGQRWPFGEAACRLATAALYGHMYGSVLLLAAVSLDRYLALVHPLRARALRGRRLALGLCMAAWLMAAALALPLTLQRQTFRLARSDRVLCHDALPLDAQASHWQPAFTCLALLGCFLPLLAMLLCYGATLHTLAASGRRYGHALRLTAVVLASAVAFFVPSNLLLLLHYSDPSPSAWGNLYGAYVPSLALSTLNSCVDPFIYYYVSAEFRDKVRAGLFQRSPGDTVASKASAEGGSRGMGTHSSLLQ
- experiment description: PAR4 FLIPR assay: antagonism of agonist-peptide-induced calcium mobilization in PAR4-expressing HEK293 cells
- experimental conditions: H-Ala-Phe(4-F)-[…]NH2-induced intracellular calcium mobilization, 11-point curves
Form field: IC50 (one value per entry).
Just the number please, in nM, no unit attached.

As a guide, the following entries are already answered.
# compound, observable, measured result
records = [
    ("COc1cnc2c(-c3nc4cc(F)c(OC[C@@H](C)OC(=O)Nc5cnc(O[C@@H](C)CO)nc5)cc4s3)cc(C)cc2n1 [Example 558]", "IC50", 1.5),
    ("COc1cnc2c(-c3nc4cc(F)c(O[C@@H](C)[C@@H](C)OC(=O)Nc5cncnc5)nc4s3)cc(C)cc2n1 [Example 716]", "IC50", 2),
    ("COc1cnc2c(-c3nc4cc(F)c(OC[C@@H](C)OC(=O)Nc5ccc(C(=O)N(C)CCO)nc5)cc4s3)cc(C)cc2n1 [Example 471]", "IC50", 5.2),
    ("COc1cnc2c(-c3nc4c(Cl)c(F)c(OCCOC(=O)Nc5cnc(C)nc5)cc4s3)cc(C)cc2n1 [Example 362]", "IC50", 4.1),
    ("COc1cnc2c(-c3nc4cc(F)c(O[C@@H](C)COC(=O)Nc5cccnc5)cc4s3)cc(C)cc2n1 [Example 345]", "IC50", 0.6),
]

Task: What measured IC50 goes with COc1cnc2c(-c3nc4cc(F)c(O[C@@H](C)[C@@H](C)OC(=O)Nc5ccc(C(=O)NCCC(C)(C)O)nc5)cc4s3)cc(C)cc2n1 [Example 464] ?
Output: 1.5

Task: What measured IC50 goes with COCc1cnc2c(-c3cc4cc(OC)ccc4o3)cc(C)cc2n1 [Example 94] ?
Output: 1.4
